- System: SK-CO-1 cells
- Measurement Protocol: SK-CO-1 CTG proliferation assay (120 h) (CRC, G12V)
- Assay type: cell-based
- Run Conditions: Homo sapiens
Test Readout: IC50 (µM)

Some compounds with known IC50 results, for comparison:
Compound | System Under Test | Test Readout | Observed Result
Cc1nc2c(O[C@@H](C)[C@@H]3CCCN3C)nc(-c3onc4c3CCC[C@@]43CCCc4sc(N)c(C#N)c43)nc2n1[C@@H]1CCOC1 [I-39] | SK-CO-1 cells | IC50 | 0.014
C[C@H](Oc1nc(-c2noc3c2CCC[C@@]32CCCc3sc(N)c(C#N)c32)nc2c1CN(c1ncccn1)[C@]21CCOC1)[C@@H]1CCCN1C [II-7a] | SK-CO-1 cells | IC50 | 0.032
C[C@H](Oc1nc(-c2onc3c2CCC[C@@]32CCCc3sc(N)c(C#N)c32)nc2c1n(C)c(=O)n2[C@@H]1CCOC1)[C@@H]1C[C@H](F)CN1C [I-27] | SK-CO-1 cells | IC50 | 0.055
CO[C@H]1C[C@@H](n2c(=O)n(C)c3c(O[C@@H](C)[C@@H]4CCCN4C)nc(-c4onc5c4CCC[C@@]54CCCc5sc(N)c(C#N)c54)nc32)C1 [I-31] | SK-CO-1 cells | IC50 | 0.094
COCCn1c(=O)n([C@@H]2CCOC2)c2nc(-c3onc4c3CCC[C@@]43CCCc4sc(N)c(C#N)c43)nc(O[C@@H](C)[C@@H]3CCCN3C)c21 [I-1] | SK-CO-1 cells | IC50 | 0.008

(I) C[C@H](Oc1nc(-c2onc3c2CCC[C@@]32CCCc3sc(N)c(C#N)c32)nc2c1n(C)c(=O)n2C1COC1)[C@@H]1CCCN1C [I-24]
(II) COCCn1c(=O)n(C)c2c(O[C@@H](C)[C@@H]3CCCN3C)nc(-c3onc4c3CCC[C@@]43CCCc4sc(N)c(C#N)c43)nc21 [I-7]
Query: Between I and II , whose recorded IC50 is greater? Please respond with the label that marks your chosen entry.
Reply: II
(II: 0.19 µM, I: 0.075 µM)

(I) C[C@H](Oc1nc(-c2noc3c2CCC[C@@]32SCCc3sc(N)c(C#N)c32)nc2c1COC[C@]21CCOC1)[C@@H]1CCCN1C [II-16]
(II) C[C@H](Oc1nc(-c2onc3c2CCC[C@@]32CCCc3sc(N)c(C#N)c32)nc2c1n(C)c(=O)n2C1CCOCC1)[C@@H]1CCCN1C [I-10]
(III) C[C@H](Oc1nc(-c2onc3c2CCC[C@@]32CCCc3sc(N)c(C#N)c32)nc2c1n(C)c(=O)n2[C@@H]1CCOC1)[C@@H]1[C@@H](F)CCN1C [I-5]
(IV) Cc1cn([C@@H]2CCOC2)c2nc(-c3onc4c3CCC[C@@]43CCCc4sc(N)c(C#N)c43)nc(O[C@@H](C)[C@@H]3CCCN3C)c12 [I-41]
(V) C[C@H](Oc1nc(-c2onc3c2CCC[C@@]32CCCc3sc(N)c(C#N)c32)nc2c1n(C)c(=O)n2[C@@]12COC[C@@H]1C2)[C@@H]1CCCN1C [I-29]
Query: Sort entries by IC50 from minimum to maximum value. Please write the labels in the order that was asked for.
Reply: V, I, IV, III, II

(a) C[C@H](Oc1nc(-c2onc3c2CCC[C@@]32CCCc3sc(N)c(C#N)c32)nc2c1n(C)c(=O)n2[C@@H]1CCOC1)[C@@H]1C[C@@H](F)CN1C [I-22]
(b) C[C@H](Oc1nc(-c2onc3c2CCC[C@@]32CCCc3sc(N)c(C#N)c32)nc2c1[nH]c(=O)n2[C@@H]1CCCOC1)[C@@H]1CCCN1C [I-13]
(c) CO[C@H]1CCN(C)[C@@H]1[C@H](C)Oc1nc(-c2noc3c2CCC[C@@]32CCCc3sc(N)c(C#N)c32)nc2c1n(C)c(=O)n2[C@@H]1CCCOC1 [II-3]
(d) C[C@H](Oc1nc(-c2noc3c2CCC[C@@]32CCCc3sc(N)c(C#N)c32)nc2c1n(C)c(=O)n2[C@@H]1CCOC1)[C@@H]1CCCN1C [II-2]
(e) CCn1c(=O)n([C@@H]2CCCOC2)c2nc(-c3onc4c3CCC[C@@]43CCCc4sc(N)c(C#N)c43)nc(O[C@@H](C)C34CCCN3CCC4)c21 [I-36]
Query: Hello, I need these entries ordered by IC50, highest reading first. Thanks! Please write the labels in the order that was asked for.
Reply: b, e, a, c, d

(1) CO[C@@H]1C[C@@H]([C@H](C)Oc2nc(-c3onc4c3CCC[C@@]43CCCc4sc(N)c(C#N)c43)nc3c2n(C)c(=O)n3[C@@H]2CCCOC2)N(C)C1 [I-14]
(2) C[C@H](Oc1nc(-c2onc3c2CCC[C@@]32CCCc3sc(N)c(C#N)c32)nc2c1n(C)c(=O)n2[C@@H]1CCOC1)C12CCCN1CCC2 [I-25]
Query: Between 1 and 2 , whose recorded IC50 is greater? Please respond with the label that marks your chosen entry.
Reply: 2

Data provenance is patent US20250019385A1.
